Items are presented alongside their recorded hCD71:HSA.
target: T1, recombinant biotinylated CD71 extracellular domain (Sino Biologics) with an N-terminal 6His tag (human, UniProt P02786 89-760, biotinylated (sites not given)); experiment: screening ELISA, ratio
T1 construct: extracellular domain; also called hCD71; huCD71
T1 sequence (P02786 other isoform, or with tags, fused parts or gaps): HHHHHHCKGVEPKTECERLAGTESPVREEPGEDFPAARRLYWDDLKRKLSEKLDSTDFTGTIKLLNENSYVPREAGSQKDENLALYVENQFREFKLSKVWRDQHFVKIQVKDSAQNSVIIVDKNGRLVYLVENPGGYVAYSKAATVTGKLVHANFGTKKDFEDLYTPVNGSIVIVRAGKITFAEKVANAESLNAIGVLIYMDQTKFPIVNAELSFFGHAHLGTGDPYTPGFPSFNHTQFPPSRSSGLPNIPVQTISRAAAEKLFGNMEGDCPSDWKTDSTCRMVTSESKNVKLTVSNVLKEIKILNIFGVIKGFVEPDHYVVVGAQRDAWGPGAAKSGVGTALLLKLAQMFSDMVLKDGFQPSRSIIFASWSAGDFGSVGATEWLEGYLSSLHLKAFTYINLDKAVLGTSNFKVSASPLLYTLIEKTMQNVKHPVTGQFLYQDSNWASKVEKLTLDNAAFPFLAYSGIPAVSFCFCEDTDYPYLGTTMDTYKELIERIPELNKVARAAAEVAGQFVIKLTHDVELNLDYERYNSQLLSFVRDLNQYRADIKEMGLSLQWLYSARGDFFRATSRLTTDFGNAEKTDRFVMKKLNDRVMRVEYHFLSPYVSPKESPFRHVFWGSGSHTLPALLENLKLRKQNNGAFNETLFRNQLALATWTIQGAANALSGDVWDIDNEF
Readout Type: hCD71:HSA

Binder | Value Observed
SEQ ID NO 257 (designed binder, FN3 domain) MLPAPKNLVVSRVTEDSARLSWTAPDAAFDSFHIVYHEPRPSGEAIVLTVPGSERSYDLTGLKPGTEYEVGIVSVKGGDLSVPLSAIFTT | 601
SEQ ID NO 201 (designed binder, FN3 domain) MLPAPKNLVVSRVTEDSARLSWTAPDAAFDSFNIDYWETWVIGEAIVLTVPGSERSYDLTGLKPGTEYEVIIPGVKGGTISPPLSAIFTT | 106
SEQ ID NO 182 (designed binder, FN3 domain) MLPAPKNLVVSRVTEDSARLSWTAPDAAFDSFFIGYLEPYPPGEAIVLTVPGSERSYDLTGLKPGTEYVVSIQGVKGGTPSQPLSAIFTT | 1060
SEQ ID NO 145 (designed binder, FN3 domain) MLPAPKNLVVSRVTEDSARLSWTAPDAAFDSFFIPYAEPSPTGEAIVLTVPGSERSYDLTGLKPGTEYDVWIEGVKGGTLSWPLSAIFTT | 33
SEQ ID NO 196 (designed binder, FN3 domain) MLPAPKNLVVSRVTEDSARLSWTAPDAAFDSFNIHYVEWWVLGEAIVLTVPGSERSYDLTGLKPGTEYPVYIYGVKGGPKSIPLSAIFTT | 50
SEQ ID NO 221 (designed binder, FN3 domain) MLPAPKNLVVSRVTEDSARLSWTAPDAAFDSFHISYQEVVAEGEAIYLRVPGSERSYDLTGLKPGTEYYVLIHGVKGGYESKPLDASFTT | 537
SEQ ID NO 299 (designed binder, FN3 domain) MLPAPKNLVVSRVTEDSARLSWTAPDAAFDSFLIEYWESVGYGEAIVLTVPGSERSYDLTGLKPGTEYWVGIYGVKGGYYSRPLSAIFTT | 1940
SEQ ID NO 297 (designed binder, FN3 domain) MLPAPKNLVVSRVTEDSARLSWTAPDAAFDSFLIPYAETSPSGEAITLFVPGSERSYDLTGLKPGTEYNVVIQGVKGGRPSNPLVAASTT | 49
SEQ ID NO 275 (designed binder, FN3 domain) MLPAPKNLVVSRVTEDSARLSWTAPDAAFDSFLIAYAEVTLHGEAIVLTVPGSERSYDLTGLKPGTEYSVLIHGVKGGRNSDPLSAIFTT | 591

Entry source: patent US20210145976A1
